# EXPERIMENTAL_SYSTEM: 5-hydroxytryptamine receptor 2B (Homo sapiens, UniProt P41595)
# Sequence (P41595 whole entry): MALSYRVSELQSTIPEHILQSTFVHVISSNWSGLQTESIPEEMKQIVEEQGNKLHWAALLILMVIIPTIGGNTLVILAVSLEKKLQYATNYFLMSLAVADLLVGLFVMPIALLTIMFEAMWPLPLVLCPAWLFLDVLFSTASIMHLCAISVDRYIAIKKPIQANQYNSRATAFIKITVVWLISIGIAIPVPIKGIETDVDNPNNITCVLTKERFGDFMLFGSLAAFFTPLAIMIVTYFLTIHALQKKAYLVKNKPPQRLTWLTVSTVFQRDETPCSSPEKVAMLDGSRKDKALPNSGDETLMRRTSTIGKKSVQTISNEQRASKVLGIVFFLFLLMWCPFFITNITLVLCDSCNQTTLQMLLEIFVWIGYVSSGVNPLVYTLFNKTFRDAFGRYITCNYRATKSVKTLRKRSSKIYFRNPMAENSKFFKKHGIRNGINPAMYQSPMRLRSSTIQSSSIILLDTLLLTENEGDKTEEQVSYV
# TEST_DESCRIPTION: Agonist activity at human 5HT2B receptor expressed in HEK293 cells assessed as calcium flux by FLIPR assay
Items are presented alongside their recorded pEC50.
In plain terms, pEC50 is the concentration in mol/L turned into minus its base-10 logarithm.

[[record]]
compound = "NC[C@H]1C[C@@H]1c1ccccc1F"
experimental_system = "5-hydroxytryptamine receptor 2B (Homo sapiens, UniProt P41595)"
numeric_readout = 7.16

[[record]]
compound = "NC[C@H]1C[C@@H]1c1ccccc1Cl (relative stereo)"
experimental_system = "5-hydroxytryptamine receptor 2B (Homo sapiens, UniProt P41595)"
numeric_readout = 7.49

[[record]]
compound = "NC[C@H]1C[C@@H]1c1cccc(C(F)(F)F)c1 (relative stereo)"
experimental_system = "5-hydroxytryptamine receptor 2B (Homo sapiens, UniProt P41595)"
numeric_readout = 7.11

[[record]]
compound = "Cc1ccccc1[C@H]1C[C@@H]1CN (relative stereo)"
experimental_system = "5-hydroxytryptamine receptor 2B (Homo sapiens, UniProt P41595)"
numeric_readout = 7.28


Give a short answer stating reported pEC50 for NC[C@H]1C[C@@H]1c1ccc(F)cc1Cl (relative stereo) .
7.66

Identify the reported pEC50 for the following entry. Cc1cc([C@H]2C[C@@H]2CN)ccc1F (relative stereo)
8.31
